Cited source for all entries: the Kinase Knowledgebase extract (Sharma et al. 2016)

Kindly state pIC50 for each of the entries shown.
- testedOn: PIK3CD (Human)
- testDescription: Assessment of PIK3CD Kinase Activity
pIC50: −log10 of the molar value.

Example entries and their recorded answers appear below.
COc1ncc(-c2cccc3cc([C@H](C)Nc4ncnc5cccnc45)n(-c4ccccc4)c(=O)c23)cn1 ... > 7.00
C[C@H](Nc1ccnc2ccnn12)c1cc2scc(-c3cnn(C)c3)c2c(=O)n1-c1ccccc1 ... 6.00 to 7.00
C[C@H](Nc1ncnc2cccnc12)c1cc2scc(Cl)c2c(=O)n1-c1ccccc1 ... > 7.00
C[C@H](Nc1nc(N)nc2cccnc12)c1nc2cccc(-c3ccnnc3)c2c(=O)n1-c1ccccc1 ... > 7.00

Request: Record request: pIC50 value, item "CNc1cccc2cc([C@H](C)Nc3nc(N)nc4cccnc34)n(-c3ccccc3)c(=O)c12"
Result: 6.00 to 7.00

---

- testedOn: PIK3CD (Human)
- testDescription: Assessment of PIK3CD Kinase Activity
Record form. Attribute: IC50. Fill in for each entry.

For each of the molecules below, note its IC50.
1. C[C@H](Nc1nccc2nccn12)c1cc2cccc(Cl)c2c(=O)n1-c1ccccc1
2. Cc1cccc2cc([C@H](C)Nc3nc(N)nc4cccnc34)n(-c3cccc(F)c3)c(=O)c12
3. C[C@H](Nc1nc(Cl)nc2cccnc12)c1cc2cccc(-c3cnn(C)c3)c2c(=O)n1C1CC1
4. C[C@H](Nc1nc(Cl)nc2scnc12)c1cc2cccc(C(F)(F)F)c2c(=O)n1-c1ccccc1
5. COc1ncc(-c2cccc3cc([C@H](C)Nc4nc(O)nc5cccnc45)n(-c4ccccc4)c(=O)c23)cn1
6. C[C@H](Nc1nc(N)nc2[nH]cnc12)c1cc2cccc(C(F)(F)F)c2c(=O)n1-c1cccc(F)c1

Result:
1: > 10000 nM; 2: < 100 nM; 3: 100 to 1000 nM; 4: < 100 nM; 5: > 10000 nM; 6: < 100 nM

List reported IC50 for each of these molecules:
1. C[C@H](Nc1ccnc2cccnc12)c1cc2cccc(C(F)(F)F)c2c(=O)n1-c1ccccc1
2. COc1ccc(-c2cccc3cc([C@H](C)Nc4ncnc5cccnc45)n(-c4ccccc4)c(=O)c23)cn1

Result:
1. < 100 nM
2. < 100 nM

// each listed molecule needs a value for IC50
1. COc1ncc(-c2cccc3cc([C@H](C)Nc4nc(N)nc5cccnc45)n(-c4ccccc4)c(=O)c23)cn1
2. C[C@H](Nc1ccnc2ccnn12)c1cc2cccc(C(F)(F)F)c2c(=O)n1-c1cccc(F)c1
3. Cc1cc(-c2cccc3nc([C@H](C)Nc4nc(N)nc5cccnc45)n(-c4ccccc4)c(=O)c23)ccn1

Result:
1. < 100 nM
2. < 100 nM
3. < 100 nM

---

Hi there, I'd appreciate the recorded IC50 for every entry that follows.
- testedOn: PIK3CA (human)
- testDescription: Assessment of PIK3CA Kinase Activity

Example entries begin here.
C[C@H](Nc1cc(Cl)ncc1C(N)=O)c1cc2cccc(Cl)c2c(=O)n1-c1ccccc1 ... > 10 µM
C[C@H](Nc1ncnc2cccnc12)c1cc2cccc(-c3cnn(C)c3)c2c(=O)n1C ... > 10 µM
C[C@H](Nc1ccnn2ccnc12)c1cc2cccc(Cl)c2c(=O)n1CCN1CCCC1 ... > 10 µM
C[C@H](Nc1c(C#N)cnc2cccnc12)c1cc2cccc(C(F)(F)F)c2c(=O)n1-c1ccccc1 ... > 10 µM
CCOC(=O)c1cnc(N[C@@H](C)c2cc3cccc(-c4ccnc(OC)c4)c3c(=O)n2-c2ccccc2)nc1N ... > 10 µM

// each listed compound needs a value for IC50
1. COc1cncc(-c2cccc3cc([C@H](C)Nc4ncnc5cccnc45)n(-c4ccccc4)c(=O)c23)c1
2. C[C@H](Nc1nc(N)nc2[nH]cnc12)c1cc2cccc(C(F)(F)F)c2c(=O)n1-c1ccccc1
3. C[C@H](Nc1cc(Cl)ncc1C#N)c1cc2cccc(Cl)c2c(=O)n1-c1ccccc1
4. C[C@H](Nc1ccnn2ccnc12)c1cc2scc(-c3cnn(C)c3)c2c(=O)n1-c1ccccc1

Result:
1. 0.1 to 1 µM
2. 0.1 to 1 µM
3. > 10 µM
4. > 10 µM

---

Give IC50 for every item shown.
- testedOn: PIK3CD (Human)
- testDescription: Assessment of PIK3CD Kinase Activity

C[C@H](Nc1ccnc2ccnn12)c1cc2cccc(Cl)c2c(=O)n1C1CC1 ... < 100 nM
C[C@H](Nc1ccnc2ccnn12)c1cc2cccc(Cl)c2c(=O)n1-c1ccccc1 ... < 100 nM
C[C@H](Nc1nc(Cl)nc2cccnc12)c1cc2cccc(-c3cnn(C)c3)c2c(=O)n1-c1cccc(F)c1 ... 100 to 1000 nM
C[C@H](Nc1ncnc(N)c1C#N)c1cc2cccc(C(F)(F)F)c2c(=O)n1-c1cccc(F)c1 ... < 100 nM
Cc1cncc(-c2cccc3cc([C@H](C)Nc4nc(N)nc5cccnc45)n(-c4ccccc4)c(=O)c23)c1 ... < 100 nM

For every item in the list below, what is its measured IC50?
1. COc1ncc(-c2cccc3cc([C@H](C)Nc4nc(OC)nc5cccnc45)n(-c4ccccc4)c(=O)c23)cn1
2. C[C@H](Nc1ncnc2cccnc12)c1cc2cccc(-c3ccc(N)nc3)c2c(=O)n1-c1ccccc1

Result:
> 10000 nM
< 100 nM

Give me IC50 for each of these compounds, listed below.
1. C[C@H](Nc1ncnc2cccnc12)c1cc2cccc(Cl)c2c(=O)n1CCN1CCCC1
2. C[C@H](Nc1ccnn2ccnc12)c1cc2cccc(Cl)c2c(=O)n1-c1ccccc1
3. C[C@H](Nc1c(C#N)cnc2cccnc12)c1cc2cccc(-c3cnn(C)c3)c2c(=O)n1-c1ccccc1

Result:
< 100 nM
< 100 nM
> 10000 nM

Provide reported IC50 for each item, in the same order as listed.
1. C[C@H](Nc1ncnc2cnccc12)c1cc2cccc(Cl)c2c(=O)n1-c1ccccc1
2. Cc1ncc(-c2cccc3cc([C@H](C)Nc4nc(N)nc5cccnc45)n(-c4ccccc4)c(=O)c23)cn1

Result:
1. > 10000 nM
2. < 100 nM

---

Would you kindly list IC50 for each of these compounds?
- testedOn: PIK3CD (Human)
- testDescription: Assessment of PIK3CD Kinase Activity

Could you report IC50 for every entry in the following list?
1. C[C@H](Nc1ccnc2ccnn12)c1cc2scc(Cl)c2c(=O)n1-c1ccccc1
2. Cc1ncc(-c2cccc3cc([C@H](C)Nc4ncnc5cccnc45)n(-c4ccccc4)c(=O)c23)cn1
3. C[C@H](Nc1nc(N)ncc1C#N)c1cc2cccc(C(F)(F)F)c2c(=O)n1-c1cccc(F)c1
4. C[C@H](Nc1ncnc2cccnc12)c1cc2c(F)cccc2c(=O)n1-c1ccccc1
5. C[C@H](Nc1nc(N)nc2cccnc12)c1cc2cccc(-c3ccnnc3)c2c(=O)n1-c1cccc(F)c1
6. CNc1nc(N[C@@H](C)c2cc3cccc(-c4cnc(C)nc4)c3c(=O)n2-c2ccccc2)c2ncccc2n1

Result:
1: < 100 nM; 2: < 100 nM; 3: < 100 nM; 4: < 100 nM; 5: < 100 nM; 6: 100 to 1000 nM

---

- testedOn: PIK3CG (human)
- testDescription: Assessment of PIK3CG Kinase Activity
Task for the reader: assign each of the following compounds its reported IC50.

# batch size: 4; output IC50 per entry
1. C[C@H](Nc1ccnc2cccnc12)c1cc2cccc(C(F)(F)F)c2c(=O)n1-c1ccccc1
2. C[C@H](Nc1ncnc2cccnc12)c1cc2ccc(F)c(Cl)c2c(=O)n1-c1ccccc1
3. COc1ccc(-c2cccc3cc([C@H](C)Nc4ncnc5cccnc45)n(-c4ccccc4)c(=O)c23)cn1
4. COc1ncc(-c2cccc3cc([C@H](C)Nc4cc(O)nc5cccnc45)n(-c4ccccc4)c(=O)c23)cn1

Result:
< 100 nM
< 100 nM
< 100 nM
> 10000 nM

Provide each entry's IC50 from the list below.
1. C[C@H](Nc1ncnc2cccnc12)c1cc2cccc(-c3ccc(N)nc3)c2c(=O)n1-c1ccccc1
2. C[C@H](Nc1nc(N)nc2cccnc12)c1cc2cccc(-c3cnc4[nH]ccc4c3)c2c(=O)n1-c1ccccc1
3. C[C@H](Nc1ncnc2cc(F)c(F)cc12)c1cc2cccc(Cl)c2c(=O)n1-c1ccccc1
4. C[C@H](Nc1ccnn2ccnc12)c1cc2cccc(-c3cnn(C)c3)c2c(=O)n1-c1cccc(F)c1
5. C[C@H](Nc1ncnn2cncc12)c1cc2cccc(C(F)(F)F)c2c(=O)n1-c1ccccc1
6. C[C@H](Nc1ncnc2[nH]cc(C#N)c12)c1cc2cccc(C(F)(F)F)c2c(=O)n1-c1ccccc1

Result:
< 100 nM
< 100 nM
> 10000 nM
< 100 nM
> 10000 nM
< 100 nM

Parameter requested: IC50. Apply to each item below.
1. C[C@H](Nc1ccnc2ccnn12)c1cc2cccc(Cl)c2c(=O)n1C1CC1
2. C[C@H](Nc1ncnc2cccnc12)c1cc2scc(-c3cnn(C)c3)c2c(=O)n1-c1ccccc1

Result:
1: 100 to 1000 nM; 2: < 100 nM

Each of the following entries comes with a recorded value; kindly state IC50 for each.
1. C[C@H](Nc1ncnc2cccnc12)c1cc2cccc(C(F)(F)F)c2c(=O)n1-c1cccc(F)c1
2. COc1ncc(-c2cccc3cc([C@H](C)Nc4ccnc5ccnn45)n(-c4ccccc4)c(=O)c23)cn1
3. C[C@H](Nc1nc(N)nc2nccnc12)c1cc2cccc(Cl)c2c(=O)n1-c1ccccc1
4. C[C@H](Nc1nc(N)nc2scnc12)c1cc2cccc(C(F)(F)F)c2c(=O)n1-c1ccccc1
5. C[C@H](Nc1ccnc2ccnn12)c1cc2cccc(C(F)(F)F)c2c(=O)n1-c1cccc(F)c1
6. C[C@H](Nc1cc(Cl)nn2ccnc12)c1cc2cccc(-c3cnn(C)c3)c2c(=O)n1-c1cccc(F)c1

Result:
< 100 nM
100 to 1000 nM
< 100 nM
< 100 nM
< 100 nM
100 to 1000 nM

// for each compound below, give its IC50
1. C[C@H](Nc1nc(N)nc2cccnc12)c1cc2cccc(N(C)C)c2c(=O)n1-c1ccccc1
2. C[C@H](Nc1ncnc2scnc12)c1cc2scc(C(F)(F)F)c2c(=O)n1-c1ccccc1
3. C[C@H](Nc1ccnc2ccnn12)c1cc2cccc(Cl)c2c(=O)n1CCN1CCCC1
4. C[C@H](Nc1ncnc(N)c1C#N)c1cc2cccc(C(F)(F)F)c2c(=O)n1-c1ccccc1
5. C[C@H](Nc1ncnn2ccnc12)c1cc2cccc(C(F)(F)F)c2c(=O)n1-c1ccccc1
6. C[C@H](Nc1nc(Cl)nc2cccnc12)c1cc2cccc(-c3cnn(C)c3)c2c(=O)n1-c1ccccc1

Result:
["100 to 1000 nM", "< 100 nM", "> 10000 nM", "< 100 nM", "< 100 nM", "< 100 nM"]

Quick batch: IC50 for everything below.
1. C[C@H](Nc1ncnc2cnccc12)c1cc2cccc(Cl)c2c(=O)n1-c1ccccc1
2. C[C@H](Nc1ncnc2scnc12)c1cc2cccc(C(F)(F)F)c2c(=O)n1-c1cccc(F)c1

Result:
> 10000 nM
< 100 nM

Request: Could you tell me which IC50 is on file for "C[C@H](Nc1nc(N)nc2[nH]cnc12)c1cc2cccc(C(F)(F)F)c2c(=O)n1-c1ccccc1" ?
Result: < 100 nM
